Biological target: ADMP (ADAMTS-4-5) (Homo sapiens, UniProt O75173)
Construct: purchased Calbiochem PF113
Sequence (O75173 213-837): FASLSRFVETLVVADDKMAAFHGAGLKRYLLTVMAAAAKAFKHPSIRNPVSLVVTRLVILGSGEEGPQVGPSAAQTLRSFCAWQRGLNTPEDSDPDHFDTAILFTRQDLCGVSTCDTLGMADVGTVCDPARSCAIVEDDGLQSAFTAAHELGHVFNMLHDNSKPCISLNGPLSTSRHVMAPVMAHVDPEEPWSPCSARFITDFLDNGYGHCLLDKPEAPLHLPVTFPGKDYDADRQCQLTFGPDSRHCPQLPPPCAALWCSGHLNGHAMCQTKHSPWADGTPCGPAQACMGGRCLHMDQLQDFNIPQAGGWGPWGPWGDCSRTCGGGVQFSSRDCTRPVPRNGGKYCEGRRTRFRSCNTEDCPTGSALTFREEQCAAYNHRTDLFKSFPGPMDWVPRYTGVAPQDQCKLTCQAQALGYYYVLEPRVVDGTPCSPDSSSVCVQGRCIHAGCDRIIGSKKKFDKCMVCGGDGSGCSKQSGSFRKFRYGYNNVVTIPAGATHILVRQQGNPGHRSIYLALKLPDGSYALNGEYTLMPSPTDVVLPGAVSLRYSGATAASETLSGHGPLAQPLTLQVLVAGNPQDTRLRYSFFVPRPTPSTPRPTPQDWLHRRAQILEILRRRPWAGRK
Experiment: ADMP activity assay (procedures of WO00/05256)
Assay type: biochemical
Conditions: read-out: IC50 (ADMP inhibition)
# note: exactly 100 nM is not below, so it is n; use y for IC50 strictly under it

molecule: COc1cc2c(cc1OC)CN(C(=O)[C@H](O)[C@@H](O)C(=O)N[C@@H](C)c1ccc(Br)cc1)CC2
class: y
--
molecule: C[C@H](NC(=O)[C@H](O)[C@@H](O)C(=O)N1CCCC1c1nc2ccccc2s1)c1ccc(Br)cc1 (some centres unmarked)
class: n
--
molecule: C[C@H](NC(=O)[C@H](O)[C@@H](O)C(=O)N1CCC(S(=O)(=O)c2ccccc2)CC1)c1ccc(Br)cc1
class: y
--
molecule: COc1cccc(N2CCN(C(=O)[C@H](O)[C@@H](O)C(=O)N[C@@H](C)c3ccc(Br)cc3)CC2)c1
class: y
--
molecule: C[C@H](NC(=O)[C@H](O)[C@@H](O)C(=O)N1CCC(Oc2ccccc2)CC1)c1ccc(Br)cc1
class: y
--
molecule: C[C@H](NC(=O)[C@H](O)[C@@H](O)C(=O)N1Cc2ccccc2C[C@@H]1CO)c1ccc(Br)cc1
class: n
--
molecule: O=C(NCc1ccc(I)cc1)[C@H](O)[C@@H](O)C(=O)N1CCc2ccccc2C1
class: y
--
molecule: COc1ccc(N2CCN(C(=O)[C@H](O)[C@@H](O)C(=O)N[C@@H](C)c3ccc(Br)cc3)CC2)cc1
class: n

Hey, just so you know, these numbers are from patent US7553864B2.
